# TEST DETAILS: clinical
# STUDY CONDITIONS: human, in vivo, single dose, PK lead-in phase of dose-escalation phase, 600 mg (n=7), mean; read-out: Tmax
OBSERVED PROPERTY: Tmax (h)
Answer in h, number only, no unit symbol.

q: Reported Tmax for `COc1cc(N2CCC(N3CCN(C)CC3)CC2)ccc1Nc1nc2c(c(Nc3ccccc3S(=O)(=O)NC(C)C)n1)CCN2` : what is it?
a: 3.9

====

# TEST DETAILS: clinical
# STUDY CONDITIONS: human, in vivo, 600 mg, AUCINF_obs
OBSERVED PROPERTY: AUC(0-inf) (ng·h/mL)
Give the quantity in ng·h/mL, number only.

q: What does the data say about its AUC(0-inf)? Entry: `COc1cc(N2CCC(N3CCN(C)CC3)CC2)ccc1Nc1nc2c(c(Nc3ccccc3S(=O)(=O)NC(C)C)n1)CCN2`
a: 7150
